system: Yersinia pseudotuberculosis; experiment: Effect on T3S in Yersinia pseudotuberculosis 3 pIB29 assessed as inhibition of light emission at 10 uM by luciferase reporter gene assay
quantityKind: inhibition (%)
Report the figure in % without appending any unit label.

{"chemicalStructure": "COc1cc(Cl)c(C)cc1NC(=O)c1cc(I)cc(I)c1OC(C)=O", "subjectOfTest": "Yersinia pseudotuberculosis", "inhibition, %": 11}

Q) Assign inhibition to the following record: `CC(=O)Oc1c(Cl)cc(Cl)c(Cl)c1C(=O)Nc1ccc(C(C)(C)C)cc1`
A) 4

Q) Give me measured inhibition, please, for this molecule: `CC(=O)Oc1ccc(I)cc1C(=O)Nc1ccc(SC(F)(F)F)cc1`
A) 58

Q) Tell us which inhibition value is on record for `Cc1ccc(C(=O)Nc2ccccc2F)c(O)c1`
A) 23

Q) Complete the entry with inhibition for `O=C(Nc1ccc(F)cc1)c1cc(I)cc(I)c1O`
A) 62

Q) Quote inhibition reported for `CC(=O)Oc1ccccc1C(=O)Nc1ccc(Cl)cc1` please.
A) 23
